metric: IC50
Kindly format the answer as number then unit.

Qu. Provide IC50, system human Gal-1 (hGal-1) (Homo sapiens, UniProt P09382), entry CCN(C)C(=O)[C@H](S[C@@H]1O[C@H](CO)[C@H](O)[C@H](n2cc(-c3cc(F)c(F)c(F)c3)nn2)[C@H]1O)C(O)(CC)CC [Example 2.32.203R.]
Ans. 30.8 µM

Qu. Report IC50 on human Gal-1 (hGal-1) (Homo sapiens, UniProt P09382) for this entry: CN(C(=O)[C@H](S[C@@H]1O[C@H](CO)[C@H](O)[C@H](n2cc(-c3cc(F)c(F)c(F)c3)nn2)[C@H]1O)C1(O)CCOCC1)c1ccccn1 [Example 2.41.233R.]
Sequence (P09382 whole entry): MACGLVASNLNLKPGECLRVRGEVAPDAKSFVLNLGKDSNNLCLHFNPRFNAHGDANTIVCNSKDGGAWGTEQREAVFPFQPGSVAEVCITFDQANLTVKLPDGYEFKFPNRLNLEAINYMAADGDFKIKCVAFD
Ans. 9.8 µM

Qu. Fill in: IC50 on human Gal-1 (hGal-1) (Homo sapiens, UniProt P09382), entry CN(CC(F)(F)F)C(=O)[C@@H](S[C@@H]1O[C@H](CO)[C@H](O)[C@H](n2cc(-c3cc(F)c(F)c(F)c3)nn2)[C@H]1O)C1(O)CCC1 [Example 2.34.219S.]
Ans. 0.12 µM

Qu. Provide the reported IC50 (system: human Gal-1 (hGal-1) (Homo sapiens, UniProt P09382)) for CC(C)CN(C)C(=O)[C@H](S[C@@H]1O[C@H](CO)[C@H](O)[C@H](n2cc(-c3cc(F)c(F)c(F)c3)nn2)[C@H]1O)C1(O)CCOCC1 [Example 2.41.200R.]
Ans. 10.9 µM

Source: patent US12410208B2
